Entry source: patent US11103454B2

Measured Attribute: Solubility in mineral oil

**Query** Quickly give me recorded Solubility in mineral oil for Cc1ncc([N+](=O)[O-])n1CCO [Metronidazole]
**Result** < 0.01%

**Query** Recall and state the measured Solubility in mineral oil for Cc1cnc(NC(=O)C2=C(O)c3ccccc3S(=O)(=O)N2C)s1 [Meloxicam] .
**Result** < 0.001%

**Query** Give a short answer stating reported Solubility in mineral oil for CCCCC(=O)O[C@]1(C(=O)CO)[C@@H](C)C[C@H]2[C@@H]3CCC4=CC(=O)C=C[C@]4(C)[C@@]3(F)[C@@H](O)C[C@@]21C [Betamethasone valerate] .
**Result** < 0.01%

**Query** Please indicate Solubility in mineral oil recorded for CC(=O)[C@H]1CC[C@H]2[C@@H]3CCC4=CC(=O)CC[C@]4(C)[C@H]3CC[C@]12C [Progesterone]
**Result** < 0.001%

**Query** Hello, please tell me recorded Solubility in mineral oil for this one: CCCC(=O)O[C@]1(C(=O)CO)CC[C@H]2[C@@H]3CCC4=CC(=O)CC[C@]4(C)[C@H]3[C@@H](O)C[C@@]21C [Hydrocortisone butyrate]
**Result** < 0.01%

**Query** Provide Solubility in mineral oil value for the following molecule: C/C(=C\C(=O)OCCCCCCCCC(=O)O)C[C@@H]1OC[C@H](C[C@@H]2O[C@H]2[C@@H](C)[C@H](C)O)[C@@H](O)[C@H]1O [Mupirocin]
**Result** < 0.01%

**Query** Give reported Solubility in mineral oil value for CC(=O)N1CCN(c2ccc(OCC3COC(Cn4ccnc4)(c4ccc(Cl)cc4Cl)O3)cc2)CC1 (stereo not shown) [Ketoconazole]
**Result** < 0.01%

====

Measured Attribute: Solubility in glycofurol

CCCCC(=O)O[C@]1(C(=O)CO)[C@@H](C)C[C@H]2[C@@H]3CCC4=CC(=O)C=C[C@]4(C)[C@@]3(F)[C@@H](O)C[C@@]21C [Betamethasone valerate] = more than 1%
CC(=O)N1CCN(c2ccc(OCC3COC(Cn4ccnc4)(c4ccc(Cl)cc4Cl)O3)cc2)CC1 (stereo not shown) = more than 1%
CCCC(=O)O[C@]1(C(=O)CO)CC[C@H]2[C@@H]3CCC4=CC(=O)CC[C@]4(C)[C@H]3[C@@H](O)C[C@@]21C [Hydrocortisone butyrate] = more than 1%
C/C(=C\C(=O)OCCCCCCCCC(=O)O)C[C@@H]1OC[C@H](C[C@@H]2O[C@H]2[C@@H](C)[C@H](C)O)[C@@H](O)[C@H]1O = more than 1%
